Test system: NCI-H460 lung
EXPERIMENT: NCI-60 one-dose screen, 48 h
STUDY CONDITIONS: 10 µM unless noted
Compounds without any hit were thinned out: in the full panel of roughly 83,000, 20% have a hit. Calls of active or inactive are those of the source. The calls were made as follows: active = growth percent below 10; inactive = the rest.
# valid calls are active, inactive; nothing else

INSERT INTO results (compound, class_label) VALUES
  ('COc1cccc(-c2nn(-c3ccccc3)cc2-c2ccnc(NCCNC(=O)Nc3ccccc3)c2)c1', 'inactive'),
  ('CCCCCCCOc1c(OC)cc(C2CC(=O)Nc3c2c(C)nn3-c2nc3ccccc3[nH]2)cc1OC (stereo not given)', 'active'),
  ('COc1cc2nc(Cl)nc(Nc3ccc(S(=O)(=O)Nc4nccs4)cc3)c2cc1OC', 'inactive'),
  ('C=CCn1c(C)nc2cc(Nc3nc(Cl)nc4ccccc34)ccc21', 'inactive');

Now turn to the next compound.
Could you check what this test reported for Cc1cc(NCc2cc(Nc3ccnc4cc(Cl)ccc34)ccc2F)nc(N2CCOCC2)n1 ?
inactive

* * *

Can you tell me growth for the items I'm about to list?
System: MDA-MB-435 melanoma
EXPERIMENT: NCI-60 one-dose screen, 48 h (100 = growth as untreated, 0 = no growth, -100 = all killed)
STUDY CONDITIONS: 10 µM unless noted
Compounds without any hit were thinned out: in the full panel of roughly 83,000, 20% have a hit.
Numbers only, in %.

Please review the following examples before continuing.
INSERT INTO results (compound, value_measured) VALUES
  ('CN(C)CC1C(=O)O[C@H]2[C@H]1CC/C(COC(=O)c1cc3ccccc3[nH]1)=C\CC[C@@]1(C)O[C@@H]21 (some centres undefined)', -38.2),
  ('O=C1N=c2cc3c(cc2=C/C1=C/c1sc(=S)n(CCc2ccc(O)cc2)c1O)OCCO3', 61.1),
  ('CCN(CC)CCn1nc2c3c(cccc3c1=O)-c1ccccc1-2', 39.7),
  ('N/C(=N\c1nc2ccccc2s1)NC(=O)Nc1cccc(Cl)c1', 1.08),
  ('COc1cc(-c2nc(N3CCN(C)CC3)c3ccccc3n2)cc(OC)c1OC', 0),
  ('CCN(CC)Cc1cccc(C(=O)OC)c1', 101),
  ('CCN(CC)c1ccc2nc3c4ccccc4c(=NC(=O)c4ccccc4-c4c5ccc(N(CC)CC)cc5[o+]c5cc(N(CC)CC)ccc45)cc-3oc2c1', -86.2),
  ('Nc1ccc2c(c1)c(N)nn2C(=O)Nc1ccc(Cc2ccccc2)cc1', 68.9);

Consider the record given below.
State the recorded growth for this entry: C[C@H](NC(=O)[C@@H]1CSSC[C@@H](NC(=O)c2nc3ccccc3cc2O)C(=O)NCC(=O)N1C)c1ccccc1
23.9

* * *

Tested on: TK-10 renal
EXPERIMENT: NCI-60 one-dose screen, 48 h
STUDY CONDITIONS: 10 µM unless noted
This is part of a sample that, as a whole, favours compounds with a hit. Of some 83,000 tested, about 20% had one in any assay. Active and inactive are the calls of the source. How the source made its calls: active means growth percent below 10; inactive means the rest.
# valid calls are yes = active, no = inactive; nothing else

INSERT INTO measurements (compound, class_label) VALUES
  ('N#C/C(=C/C=C/c1cccc(Cl)c1)S(=O)c1ccccc1 (stereo not drawn)', 'yes'),
  ('COC(=O)[C@]12CC[C@@H](C)[C@H](C)[C@@H]1C1=CC[C@@H]3[C@@]4(C)C(C=O)=C[C@@](C)(COC(C)=O)[C@@H]4[C@H](O)C[C@@]3(C)[C@]1(C)CC2', 'yes'),
  ('COCCN(C(=O)c1ccc(F)cc1F)c1c(N)n(Cc2ccccc2)c(=O)[nH]c1=O', 'no');

Could you check what this test reported for O=S(=O)(Nc1cccc(Cl)c1)c1ccc(-c2cnc(C3CC3)o2)cc1 ?
no

Could you check what this test reported for CC1=C(SCCC(=O)OC(C[Se]C2=C(C)C(=O)c3ccccc3C2=O)C(=O)NCCCCCC(=O)OCc2ccccc2)C(=O)c2ccccc2C1=O (stereo not drawn) ?
no

Could you check what this test reported for Cc1cc(NCc2cc(Nc3ccnc4cc(Cl)ccc34)ccc2F)nc(N2CCSCC2)n1 ?
yes

Could you check what this test reported for CC1SC(c2ccc(OCc3ccccc3)cc2)N(NC(=O)C(O)(c2ccccc2)c2ccccc2)C1=O (stereo not drawn) ?
no

* * *

Can you tell me growth for the items I'm about to list?
Test system: M14 melanoma
EXPERIMENT: NCI-60 one-dose screen, 48 h (100 = growth as untreated, 0 = no growth, -100 = all killed)
STUDY CONDITIONS: 10 µM unless noted
About 83,000 compounds went through this panel and 20% of them were active in at least one assay; those are over-represented in the sample as a whole.
One number for each entry, in %.

Quick request: growth for each listed item, please.
1. O=[N+]([O-])c1ccc(OCCO)cc1
2. O=c1c2cc(F)ccc2sc2c(NCCCN3CCCC3)nc3ccccc3c12

[109, -64.2]

Quick request: growth for each listed item, please.
1. O=C1Nc2ccc(F)cc2C12Nc1cc(Cl)ccc1S2 (stereo not given)
2. O=c1c2c3c(sc2nc(N/N=C/c2ccc(Br)cc2)n1Cc1ccccc1)CCCC3
3. COC1=C(OC)C(=O)C(OC)=C(OC)C1=O
4. COC(=O)[C@]12CC[C@@H](C)[C@H](C)[C@@H]1C1=CC[C@@H]3[C@@]4(C)C(C=O)=C[C@@](C)(COC(C)=O)C4=CC[C@@]3(C)[C@]1(C)CC2
5. CCCCCCCCCCN(CCCCCCCCCC)CC(=O)c1ccc2cc(Br)c3ccccc3c2c1
6. COc1ccc(N=C(c2ccccc2)C2C(=O)c3ccccc3C2=O)cc1

1. 90.9
2. 75.8
3. 105
4. -48.4
5. -11.7
6. 92

Quick request: growth for each listed item, please.
1. Nc1n[nH]c(-c2cc(Cl)ccc2O)c1-c1ccccc1
2. N=C(N)c1ccc(-c2ccc(-c3cncc4ccccc34)s2)s1

93.8
-76.8

* * *

System: SF-295 CNS
EXPERIMENT: NCI-60 one-dose screen, 48 h (100 = growth as untreated, 0 = no growth, -100 = all killed)
STUDY CONDITIONS: 10 µM unless noted
About 83,000 compounds went through this panel and 20% of them were active in at least one assay; those are over-represented in the sample as a whole.
REPORTED ENDPOINT: growth (%)
One number for each entry, in %.

Quick request: growth for each listed item, please.
1. CCN1C(=O)N(CC)C2Nn3c(s/c(=C4\C(=O)N(C)c5ccccc54)c3=O)=NC21 (centres undefined)
2. CCOC(=O)/C=C/c1cc2cc(-c3csc4ccccc34)ccc2[nH]1
3. Cc1c2c(c(C)c3c1oc1cc(O)ccc13)C(=O)N(CCN1CCCCC1)C2=O
4. CCCCCCCCCCN(CCCCCCCCCC)CC(=O)c1ccc2cc(Br)c3ccccc3c2c1

1. 52.2
2. 64.6
3. 102
4. 91.8

* * *

System: T-47D breast
EXPERIMENT: NCI-60 one-dose screen, 48 h (100 = growth as untreated, 0 = no growth, -100 = all killed)
STUDY CONDITIONS: 10 µM unless noted
Compounds without any hit were thinned out: in the full panel of roughly 83,000, 20% have a hit.
REPORTED ENDPOINT: growth (%)
One number for each entry, in %.

Please review the following examples before continuing.
INSERT INTO results (molecule, measured_on, reported_endpoint, value_measured) VALUES
  ('O=c1cc(-c2ccc(Cl)cc2)[nH]c2ccccc12', 'T-47D breast', 'growth', 87.2),
  ('O=C(c1ccccc1)N1N=C(c2ccccc2)CC1c1nnc2n(Cc3ccccc3)c(=O)c3c4c(sc3n12)CCCC4 (stereo not given)', 'T-47D breast', 'growth', 122),
  ('COc1ccc2c(c1)CCCN2c1c2ccccc2nc2ccccc12', 'T-47D breast', 'growth', 51.1),
  ('Fc1cnc(NC2CC2)nc1-c1cnc2ccc(N3CCOCC3)cn12', 'T-47D breast', 'growth', 7.29),
  ('Cn1c(-c2c(N)n(Cc3ccc(C(F)(F)F)cc3)c3nc(C#N)c(C#N)nc23)nc2ccccc21', 'T-47D breast', 'growth', 4.18),
  ('COc1ccc2c(c1)[nH]c(=O)c1c3cccnc3cn21', 'T-47D breast', 'growth', 60.2),
  ('COc1cc2ncn3c(=O)c4c5c(sc4nc3c2cc1OC)CCCC5', 'T-47D breast', 'growth', 100),
  ('O=C1CCc2c(sc3[nH]c(=S)n(-c4ccc(OC(F)(F)F)cc4)c(=O)c23)C1', 'T-47D breast', 'growth', 20.3),
  ('CCc1ccccc1-n1c(N)c(C#N)c(-c2ccc(N(C)C)cc2)c(C#N)c1=O', 'T-47D breast', 'growth', 80),
  ('COC(=O)[C@]12CC[C@@H](C)[C@H](C)[C@@H]1C1=CC[C@@H]3[C@@]4(C)C(C=O)=C[C@@](C)(COC(C)=O)C4=CC[C@@]3(C)[C@]1(C)CC2', 'T-47D breast', 'growth', -5.34);

Quick request: growth for each listed item, please.
1. COc1ccc2oc3c(C)c4c(c(C)c3c2c1)C(=O)N(Cc1ccccc1)C4=O
2. COc1cccc(-c2nn(-c3ccccc3)cc2-c2ccnc(NCCNC(=O)Nc3cccc(C(F)(F)F)c3)c2)c1
3. COc1ccc(N=C(c2ccccc2)C2C(=O)c3ccccc3C2=O)cc1
4. COc1ccc(C2=NN(C(=O)c3cc(OC)c(OC)c(OC)c3)C(c3ccc(Cl)cc3)C2)cc1OC (stereo not given)
5. CC1=C([Se]CC(OC(=O)[C@@H](CO)NC(=O)OC(C)(C)C)C(=O)NC(C)(C)C)C(=O)c2ccccc2C1=O (stereo not given in full)
6. O=C(Nc1cccc(Cl)c1)c1cc(N=Nc2ccc([N+](=O)[O-])cc2Cl)ccc1O
7. C=CCn1c(C)nc2cc(Nc3nc(Cl)nc4ccccc34)ccc21

95
0.52
78
24.6
-54.1
53.6
81.5
